These measurements were taken from patent US20250230147A1.

measuredOn: Cbl-b (Homo sapiens (Human), UniProt Q13191)
Sequence (Q13191 40-426): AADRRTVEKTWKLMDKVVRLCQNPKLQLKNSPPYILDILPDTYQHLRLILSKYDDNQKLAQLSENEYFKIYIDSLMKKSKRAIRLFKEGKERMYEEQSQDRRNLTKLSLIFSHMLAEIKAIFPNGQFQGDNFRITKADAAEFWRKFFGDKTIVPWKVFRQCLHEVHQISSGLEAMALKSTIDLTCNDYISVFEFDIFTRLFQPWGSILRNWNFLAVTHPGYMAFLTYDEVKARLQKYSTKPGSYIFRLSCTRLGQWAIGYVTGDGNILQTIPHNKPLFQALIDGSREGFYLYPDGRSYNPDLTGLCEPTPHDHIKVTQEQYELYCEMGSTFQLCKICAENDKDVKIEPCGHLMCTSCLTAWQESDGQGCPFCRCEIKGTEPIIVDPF
method: Cbl-b LCK Ub TR-FRET assay (Cbl-b Lck HTRF)
Assay type: biochemical
Procedure: Compounds were 3-fold serially diluted in DMSO in a 384-well polypropylene plate (#P-05525-BC; Labcyte) to generate a source plate with 10 concentrations of each compound, top concentration=2 mM. […] Plates were read for TR-FRET using an Envision at excitation 340 nm, emission at 615 and 665 nm, 4 flashes per well. […] Cbl-b Lck HTRF data in Table 7 is measured according to Example 76 herein; C-cbl Lck HTRF data is measured according to Example 76 herein.
endpointLabel: IC50 (nM)

Consider the following illustrative entries.
{"compound": "CC(C)[C@H]1CNCCN1Cc1cc2c(c(C(F)(F)F)c1)CN(c1cccc(C3(Cc4nncn4C)CC(F)(F)C3)c1)C2=O [Compound 219]", "quantitativeResult": 75}
{"compound": "Cn1cnnc1[C@H](F)C1(c2cccc(N3Cc4c(cc(CN5CC(C)(CO)C5)cc4C(F)(F)F)C3=O)c2)COC1 [Compound 74]", "quantitativeResult": 57}

P = Cn1cnnc1[C@H](F)C1(c2cccc(N3Cc4c(cc(CC5CNC5)cc4C(F)(F)F)C3=O)c2)COC1 [Compound 57]
Q = Cn1cnnc1[C@H](F)C1(c2cccc(N3Cc4c(cc(CNCC5CC5)cc4C(F)(F)F)C3=O)c2)CC(F)(F)C1 [Compound 449]
Which numeric IC50 is bigger, that of P or that of Q ? Label of pick, please.
P

----------
measuredOn: c-Cbl (Homo sapiens (Human))
method: C-Cbl LCK Ub TR-FRET assay (c-cbl Lck HTRF)
Assay type: biochemical
endpointLabel: IC50 (nM)

// known answers, use as guide
{"cpdSmiles": "CC(C)[C@@H]1CN(Cc2cc3c(c(C(F)(F)F)c2)CN(c2cccc(C4(Cc5nncn5C)CC(F)(F)C4)c2)C3=O)CCN1C", "IC50, nM": 32}
{"cpdSmiles": "CNS(=O)(=O)CCNc1cc(C2(Cc3nncn3C)CCC2)cc(N2Cc3c(cc(CNC4(C)CCC4)cc3C(F)(F)F)C2=O)n1", "IC50, nM": 110}
{"cpdSmiles": "Cn1cnnc1[C@@H](F)C1(c2cccc(N3Cc4c(cc(CN5CCC[C@@H](CO)C5)cc4C(F)(F)F)C3=O)c2)COC1", "IC50, nM": 280}
{"cpdSmiles": "CC(C)[C@H]1CN(C)CCN1Cc1cc2c(c(C(F)(F)F)c1)CN(c1cc(C3(Cc4nncn4C)CC(F)(F)C3)cc(N(C)C)n1)C2=O", "IC50, nM": 11}

P = CC(C)[C@H]1CN(C)CCN1Cc1cc2c(c(C(F)(F)F)c1)CN(c1cc(C3([C@H](F)c4nncn4C)CCC3)cc(NCCO)n1)C2=O
Q = Cn1cnnc1CC1(c2cccc(N3Cc4c(cc(CN5CC[C@H](CCl)C5)cc4C(F)(F)F)C3=O)c2)COC1
Given the listed records, identify the one among P and Q with higher IC50. State your choice using its label.
Q
(Q: 25 nM, P: 8.5 nM)

----------
measuredOn: c-Cbl (Homo sapiens (Human), UniProt P22681)
Sequence (P22681 47-435): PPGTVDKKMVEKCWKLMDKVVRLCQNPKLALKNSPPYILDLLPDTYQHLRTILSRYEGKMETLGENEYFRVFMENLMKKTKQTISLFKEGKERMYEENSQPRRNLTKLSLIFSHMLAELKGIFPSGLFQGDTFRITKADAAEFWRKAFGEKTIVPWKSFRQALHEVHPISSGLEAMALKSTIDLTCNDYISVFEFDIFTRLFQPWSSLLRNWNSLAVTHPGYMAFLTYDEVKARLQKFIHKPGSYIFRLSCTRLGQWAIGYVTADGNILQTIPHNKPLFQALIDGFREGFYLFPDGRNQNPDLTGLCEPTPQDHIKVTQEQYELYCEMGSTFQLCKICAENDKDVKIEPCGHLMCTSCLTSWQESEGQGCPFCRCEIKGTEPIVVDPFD
method: C-Cbl LCK Ub TR-FRET assay (c-cbl Lck HTRF)
Format: biochemical
testContext: C-cbl Lck HTRF IC50 relative to Cbl-b Lck HTRF IC50
endpointLabel: (fold-selectivity)

Some solved entries appear below for comparison.
{"molecule": "CC(C)[C@H]1CN(C)CCN1Cc1cc2c(c(C(F)(F)F)c1)CN(c1cccc(C3([C@H](F)c4n[nH]cc4C(F)(F)F)COC3)c1)C2=O [Compound 376]", "result": "(1.0x)"}
{"molecule": "CC(C)[C@H]1CN(C)CCN1Cc1cc2c(c(C(F)(F)F)c1)CN(c1cc(C3(Cc4nncn4C)CCC3)cc(NC(=O)CCl)n1)C2=O [Compound 333]", "result": "(1.0x)"}
{"molecule": "C[C@@H]1CN(Cc2cc3c(c(C(F)(F)F)c2)CN(c2cccc(C4(Cc5nncn5C)CC(F)(F)C4)c2)C3=O)CCN1C [Compound 220]", "result": "1.0x"}
{"molecule": "Cn1cnnc1[C@@H](F)C1(c2cccc(N3Cc4c(cc(CN5CC(C)(CO)C5)cc4C(F)(F)F)C3=O)c2)COC1 [Compound 75]", "result": "2.3x"}
{"molecule": "Cn1cnnc1[C@@H](F)[C@](C)(F)c1cccc(N2Cc3c(cc(CN4CCC5(CC5)C4)cc3C(F)(F)F)C2=O)c1 [Compound 129]", "result": "3.6x"}

Bench note: what (fold-selectivity) did Cn1cnnc1[C@@H](F)C1(c2cccc(N3Cc4c(cc(CN5CC6CC5C6)cc4C(F)(F)F)C3=O)c2)COC1 [Compound 87] show?
2.6x

----------
measuredOn: UniProtKB Q13191
method: Cbl-b LCK Ub TR-FRET assay (Cbl-b Lck HTRF)
Assay type: biochemical
endpointLabel: IC50 (nM)

1 = CCC1(O)CN(Cc2cc3c(c(C(F)(F)F)c2)CN(c2cccc(C4([C@@H](F)c5nncn5C)COC4)c2)C3=O)C1 [Compound 167]
2 = Cn1cnnc1[C@H](F)C1(c2cccc(N3Cc4c(cc([C@H](N)C5CC5)cc4C(F)(F)F)C3=O)c2)COC1 [Compound 54]
3 = COC[C@@H]1CCCN1Cc1cc2c(c(C(F)(F)F)c1)CN(c1cccc(C3([C@H](F)c4nncn4C)COC3)c1)C2=O [Compound 160]
Please order the records by their reported IC50, lowest number first. Labels, requested order.
2, 1, 3

----------
measuredOn: Cbl-b (Homo sapiens (Human), UniProt Q13191)
method: Cbl-b LCK Ub TR-FRET assay (Cbl-b Lck HTRF)
Format: biochemical
endpointLabel: IC50 (nM)

{"cpdSmiles": "CC(C)Nc1cc(N2Cc3c(cc(CNCC4CC4)cc3C(F)(F)F)C2=O)cc(C2(Cc3nncn3C)CCC2)c1", "readoutUnits": "nM", "quantitativeResult": 13}

P = Cn1cnnc1[C@@H](F)C1(c2cccc(N3Cc4c(cc(CNCCCF)cc4C(F)(F)F)C3=O)c2)CC(F)(F)C1
Q = CC(C)[C@H]1CNCCN1Cc1cc2c(c(C(F)(F)F)c1)CN(c1cccc(C3([C@H](F)c4nncn4C)COC3)c1)C2=O
R = CCCC1(O)CN(Cc2cc3c(c(C(F)(F)F)c2)CN(c2cccc(C4([C@@H](F)c5nncn5C)COC4)c2)C3=O)C1
Please rank these compounds by IC50 in descending order. Please write the labels in the order that was asked for.
R, Q, P

----------
measuredOn: Cbl-b (Homo sapiens (Human))
method: Cbl-b LCK Ub TR-FRET assay (Cbl-b Lck HTRF)
Format: biochemical
pIC50: −log10 of the molar value.
endpointLabel: pIC50

{"compound": "CCCCc1cc(C2(Cc3nncn3C)CCC2)cc(N2Cc3c(cc(CNC4(C)CCC4)cc3C(F)(F)F)C2=O)n1", "pIC50": 7.96}
{"compound": "Cn1cnnc1[C@H](F)C1(c2cccc(N3Cc4c(cc([C@@H](N)CC5CC5)cc4C(F)(F)F)C3=O)c2)COC1", "pIC50": 8.02}
{"compound": "Cn1cnnc1[C@H](F)C1(c2cccc(N3Cc4c(cc(CN5CCC[C@H](CO)C5)cc4C(F)(F)F)C3=O)c2)COC1", "pIC50": 7.54}
{"compound": "CC[C@H]1CN(C)CCN1Cc1cc2c(c(C(F)(F)F)c1)CN(c1cccc(C3(Cc4nncn4C)CC(F)(F)C3)c1)C2=O [Compound 401]", "pIC50": 7.54}
{"compound": "Cn1cnnc1[C@@H](F)C1(c2cccc(N3Cc4c(cc(CN5CC(C)(CF)C5)cc4C(F)(F)F)C3=O)c2)COC1", "pIC50": 6.68}
{"compound": "CC(C)[C@@H]1CN(Cc2cc3c(c(C(F)(F)F)c2)CN(c2cccc(C4([C@@H](F)c5nncn5C)COC4)c2)C3=O)CCN1C [Compound 406]", "pIC50": 7.12}

1 = CN1CCN(Cc2cc3c(c(C(F)(F)F)c2)CN(c2cccc(C4(Cc5nncn5C)CC(F)(F)C4)c2)C3=O)C(C(F)(F)F)C1 (centres unmarked)
2 = CCNc1cc(N2Cc3c(cc(CNCC4CC4)cc3C(F)(F)F)C2=O)cc(C2(Cc3nncn3C)CCC2)c1
Of the two listed items, 1 and 2 , which carries the larger pIC50 figure? I would appreciate it if you answered with the label of your choice.
2

a = Cc1cn[nH]c1C(F)C1(c2cccc(N3Cc4c(cc(CN5CCN(C)C[C@@H]5C(C)C)cc4C(F)(F)F)C3=O)c2)COC1 (some centres unmarked)
b = CC(C)[C@H]1CN(C)CCN1Cc1cc2c(c(C(F)(F)F)c1)CN(c1cccc(C3(Cc4nncn4C)CC(F)(F)C3)c1)C2=O [Compound 215]
Parameter metric = pIC50. Return the lower-valued option from a and b . Select an item and report its label.
a

P = Cn1cnnc1CC1(c2cccc(N3Cc4c(cc(CN5CCC6(CC6)C5)cc4C(F)(F)F)C3=O)c2)CC(F)(F)C1
Q = CC(C)[C@H]1CN(C)CCN1Cc1cc2c(c(C(F)(F)F)c1)CN(c1cccc(C3([C@@H](F)c4nncn4-c4ccccc4)COC3)c1)C2=O
R = Cn1cnnc1CC1(c2cc(NCC3CCOCC3)nc(N3Cc4c(cc(CNC5(C)CCC5)cc4C(F)(F)F)C3=O)c2)CCC1
Please give the order of these compounds when sorted by pIC50, largest value leading. Put the labels in the requested order and list them out.
P, R, Q
